Let's look at some molecules and their measured IC50.
- tgt: Growth factor receptor-bound protein 2 (Homo sapiens)
- Sequence (P62993 whole entry, the tested form may be a part): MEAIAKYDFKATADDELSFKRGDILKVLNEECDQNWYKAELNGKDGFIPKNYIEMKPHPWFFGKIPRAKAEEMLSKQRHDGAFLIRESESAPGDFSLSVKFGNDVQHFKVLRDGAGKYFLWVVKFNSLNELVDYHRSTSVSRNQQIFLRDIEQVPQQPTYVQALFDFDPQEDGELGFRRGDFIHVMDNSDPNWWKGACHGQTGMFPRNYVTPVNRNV
- assay.text: Binding affinity to recombinant Grb2 SH2 domain by surface plasmon resonance analysis
Starred links: 1 amine or outer side, 2 acyl side, 3 side chain; linkers in the order of their positions; H or OH if unused. Positions of bridges follow the written chain, without caps; N, C: chain ends. Non-standard residues stand in square brackets, D forms with d. Residues, ends and D or L forms follow the SMILES beside them. Cys(CH2CO)(S-oxide,Ss) = O=C([C@H](C[S@+]([O-])CC(=O)[*:3])N[*:1])[*:2]; Tyr(3-NH2) = Nc1cc(C[C@H](N)C(=O)O)ccc1O; αMeE = C[C@](N)(CCC(=O)O)C(=O)O; Aad = N[C@@H](CCCC(=O)O)C(=O)O; Ac6c = NC1(C(=O)O)CCCCC1; Ava = NCCCCC(=O)O
Write down the numeric answer in µM and omit the unit.

molecule	tgt	IC50 / µM
CC(C)C[C@@H]1NC(=O)[C@H](CCCC(=O)O)NC(=O)CSC[C@@H](C(N)=O)NC(=O)CCCCNC(=O)[C@H](CC(N)=O)NC(=O)[C@](C)(CCC(=O)O)NC(=O)[C@H](Cc2ccc(O)c(N)c2)NC1=O ({CH2CO}-[Aad]L[Tyr(3-NH2)][αMeE]N[Ava]C-NH2; thioether N-7)	Growth factor receptor-bound protein 2 (Homo sapiens)	17

Query: # value lookup — system Growth factor receptor-bound protein 2 (Homo sapiens), readout IC50, item CC(C)C[C@@H]1NC(=O)[C@H](CCCC(=O)O)NC(=O)C[S@@+]([O-])C[C@@H](C(N)=O)NC(=O)CCCCNC(=O)[C@H](CC(N)=O)NC(=O)C2(CCCCC2)NC(=O)[C@H](Cc2ccc(O)cc2)NC1=O ([Aad]LY[Ac6c]N[Ava][Cys(CH2CO)(S-oxide,Ss)]-NH2; lactam N-7)
Response: 77

* * *

- tgt: Growth factor receptor-bound protein 2 (Homo sapiens)
- assay.text: Binding affinity to recombinant Grb2 SH2 domain by surface plasmon resonance analysis
Positions of bridges follow the written chain, without caps; N, C: chain ends. Non-standard residues stand in square brackets, D forms with d. Residues, ends and D or L forms follow the SMILES beside them. *: point of attachment. Tyr(3-NH2) = Nc1cc(C[C@H](N)C(=O)O)ccc1O; Gla = N[C@@H](CC(C(=O)O)C(=O)O)C(=O)O; Fmoc = O=C(OCC1c2ccccc2-c2ccccc21)*; αMehGlu = C[C@](N)(CCCC(=O)O)C(=O)O; αMeE = C[C@](N)(CCC(=O)O)C(=O)O; Ac6c = NC1(C(=O)O)CCCCC1; Ava = NCCCCC(=O)O
Recorded IC50, one value per entry.
Numeric answer only, unit µM assumed.

Recorded results for 3 compounds are shown here.
compound	IC50 / µM
CC(C)C[C@@H]1NC(=O)[C@H](CC(C(=O)O)C(=O)O)NC(=O)CSC[C@@H](C(N)=O)NC(=O)CCCCNC(=O)[C@H](CC(N)=O)NC(=O)[C@](C)(CCCC(=O)O)NC(=O)[C@H](Cc2ccc(O)c(N)c2)NC1=O ({CH2CO}-[Gla]L[Tyr(3-NH2)][αMehGlu]N[Ava]C-NH2; thioether N-7)	9.5
CC(C)C[C@@H]1NC(=O)[C@H](CCCC(=O)O)NC(=O)C[S@@+]([O-])C[C@@H](C(N)=O)NC(=O)CCCCNC(=O)[C@H](CC(N)=O)NC(=O)[C@@](C)(CCC(=O)O)NC(=O)[C@H](Cc2ccc(O)cc2)NC1=O	30.5
CC(C)C[C@H](NC(=O)[C@](C)(CCCC(=O)O)NC(=O)OCC1c2ccccc2-c2ccccc21)C(=O)N[C@@H](Cc1ccc(O)cc1)C(=O)NC1(C(=O)N[C@@H](CC(N)=O)C(N)=O)CCCCC1 (Fmoc-[αMehGlu]LY[Ac6c]N-NH2)	118

Shift focus to the following entry.
Query: Returns the measured IC50 for the input compound. Input: CC(C)C[C@H](NC(=O)[C@H](CC(C(=O)O)C(=O)O)NC(=O)OCC1c2ccccc2-c2ccccc21)C(=O)N[C@@H](Cc1ccc(O)c(N)c1)C(=O)N[C@@](C)(CCC(=O)O)C(=O)N[C@@H](CC(N)=O)C(N)=O (Fmoc-[Gla]L[Tyr(3-NH2)][αMeE]N-NH2)
Response: 4.4

* * *

- tgt: UniProt:P62993
- assay.text: Binding affinity to recombinant Grb2 SH2 domain by surface plasmon resonance analysis
Starred links: 1 amine or outer side, 2 acyl side, 3 side chain; linkers in the order of their positions; H or OH if unused. Positions of bridges follow the written chain, without caps; N, C: chain ends. Non-standard residues stand in square brackets, D forms with d. Residues, ends and D or L forms follow the SMILES beside them. *: point of attachment. Cys(CH2CO)(S-oxide,Ss) = O=C([C@H](C[S@+]([O-])CC(=O)[*:3])N[*:1])[*:2]; Tyr(3-NH2) = Nc1cc(C[C@H](N)C(=O)O)ccc1O; Gla = N[C@@H](CC(C(=O)O)C(=O)O)C(=O)O; Fmoc = O=C(OCC1c2ccccc2-c2ccccc21)*; αMehGlu = C[C@](N)(CCCC(=O)O)C(=O)O; αMeE = C[C@](N)(CCC(=O)O)C(=O)O; Aad = N[C@@H](CCCC(=O)O)C(=O)O; Ac6c = NC1(C(=O)O)CCCCC1; Ava = NCCCCC(=O)O
In this section, each of the compounds is paired with its reported pIC50.
On this scale, pIC50 is minus log10 of a concentration expressed in M (mol/L).

compound	tgt	pIC50
CC(C)C[C@@H]1NC(=O)[C@H](CCCC(=O)O)NC(=O)C[S@@+]([O-])C[C@@H](C(N)=O)NC(=O)CCCCNC(=O)[C@H](CC(N)=O)NC(=O)[C@](C)(CCC(=O)O)NC(=O)[C@H](Cc2ccc(O)c(N)c2)NC1=O ([Aad]L[Tyr(3-NH2)][αMeE]N[Ava][Cys(CH2CO)(S-oxide,Ss)]-NH2; lactam N-7)	UniProt:P62993	5.09

Query: Could you tell me which pIC50 is on file for `C[C@@](CCC(=O)O)(NC(=O)[C@H](Cc1ccc(O)c(CCC(=O)O)c1)NC(=O)OCC1c2ccccc2-c2ccccc21)C(=O)N[C@@H](CC(N)=O)C(N)=O` ?
Response: 3.77

Query: Try CC(C)C[C@@H]1NC(=O)[C@H](CC(C(=O)O)C(=O)O)NC(=O)C[S@@+]([O-])C[C@@H](C(N)=O)NC(=O)CCCCNC(=O)[C@H](CC(N)=O)NC(=O)[C@](C)(CCCC(=O)O)NC(=O)[C@H](Cc2ccc(O)c(N)c2)NC1=O ([Gla]L[Tyr(3-NH2)][αMehGlu]N[Ava][Cys(CH2CO)(S-oxide,Ss)]-NH2; lactam N-7) next.
Response: 5.94

Query: Record: CC(C)C[C@H](NC(=O)[C@](C)(CCCC(=O)O)NC(=O)OCC1c2ccccc2-c2ccccc21)C(=O)N[C@@H](Cc1ccc(O)c(N)c1)C(=O)NC1(C(=O)N[C@@H](CC(N)=O)C(N)=O)CCCCC1 (Fmoc-[αMehGlu]L[Tyr(3-NH2)][Ac6c]N-NH2)
Response: 5.41

Query: Cool, now `C[C@@](CCC(=O)O)(NC(=O)[C@@H](N)Cc1ccc(O)c(CCO)c1)C(=O)N[C@@H](CC(N)=O)C(N)=O`
Response: 3.54

* * *

- tgt: Growth factor receptor-bound protein 2 (Homo sapiens)
- assay.text: Binding affinity to recombinant Grb2 SH2 domain by surface plasmon resonance analysis
Positions of bridges follow the written chain, without caps; N, C: chain ends. Non-standard residues stand in square brackets, D forms with d. Residues, ends and D or L forms follow the SMILES beside them. *: point of attachment. Tyr(3-NH2) = Nc1cc(C[C@H](N)C(=O)O)ccc1O; Gla = N[C@@H](CC(C(=O)O)C(=O)O)C(=O)O; Fmoc = O=C(OCC1c2ccccc2-c2ccccc21)*; Aad = N[C@@H](CCCC(=O)O)C(=O)O; αMeD = C[C@](N)(CC(=O)O)C(=O)O; Ac6c = NC1(C(=O)O)CCCCC1; Ava = NCCCCC(=O)O
measurement.name: IC50 (µM)
Express the result in µM but write the number alone.

Answered cases to consult:
molecule	experimental.value
CC(C)C[C@H](NC(=O)[C@H](CC(C(=O)O)C(=O)O)NC(=O)OCC1c2ccccc2-c2ccccc21)C(=O)N[C@@H](Cc1ccc(O)c(N)c1)C(=O)NC1(C(=O)N[C@@H](CC(N)=O)C(N)=O)CCCCC1 (Fmoc-[Gla]L[Tyr(3-NH2)][Ac6c]N-NH2)	2.5
CC(C)C[C@@H]1NC(=O)[C@H](CCCC(=O)O)NC(=O)CSC[C@@H](C(N)=O)NC(=O)CCCCNC(=O)[C@H](CC(N)=O)NC(=O)[C@@](C)(CCC(=O)O)NC(=O)[C@H](Cc2ccc(O)cc2)NC1=O	60.5
CC(C)C[C@@H]1NC(=O)[C@H](CCCC(=O)O)NC(=O)CSC[C@@H](C(N)=O)NC(=O)CCCCNC(=O)[C@H](CC(N)=O)NC(=O)[C@](C)(CC(=O)O)NC(=O)[C@H](Cc2ccc(O)cc2)NC1=O ({CH2CO}-[Aad]LY[αMeD]N[Ava]C-NH2; thioether N-7)	108

Below: the item to evaluate.
Query: Quick one: IC50 of `CC(C)C[C@@H]1NC(=O)[C@H](CCCC(=O)O)NC(=O)C[S@@+]([O-])C[C@@H](C(N)=O)NC(=O)CCCCNC(=O)[C@H](CC(N)=O)NC(=O)[C@](C)(CCC(=O)O)NC(=O)[C@H](Cc2ccc(O)cc2)NC1=O` ?
Response: 18
